Each entry below lists one item and its recorded IC50 value.
Target: T1, TBD-17 (HC S104A)
T1 construct: Fab; also called HC S104A mutant
T1 sequence (VH, as listed by the source, chain 1 of 2): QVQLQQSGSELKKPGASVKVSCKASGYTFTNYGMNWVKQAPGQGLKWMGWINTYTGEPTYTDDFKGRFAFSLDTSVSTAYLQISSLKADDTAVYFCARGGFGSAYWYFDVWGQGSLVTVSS
T1 sequence (VL, as listed by the source, chain 2 of 2): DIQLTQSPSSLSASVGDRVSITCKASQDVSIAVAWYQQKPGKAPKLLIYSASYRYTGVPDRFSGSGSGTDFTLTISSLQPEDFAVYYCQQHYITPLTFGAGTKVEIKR
Experiment: competition ELISA, peptide vs Fab binding to captured biotin-TROP2
Where no end group is shown, it is not given here.
Numbers only here, please. The scale is nM.

Some entries whose results are on file:
> print(dat)
                                     binder  observed.result
1  MDFCQIYDWPICRL (cysteine pairing not given here; also: biotinylated (site not given here)) [Peptide-18]             7080
2  VDFCGLYHWPICYQ (cysteine pairing not given here; also: biotinylated, site not given here) [Peptide-8]              890
3  PDFCAVYRWPICYQ (cysteine pairing not given here; also: biotinylated (site not given here)) [Peptide-12]             2230
4  VDFCKIYAWPICGS (cysteine pairing not given here; also: biotinylated, site not given here) [Peptide-4]             2040
5  EDFCKLYNWPICYQ (cysteine pairing not given here; also: biotinylated, site not given here) [Peptide-7]             3770

Input line: Would you mind telling me what IC50 value was observed for IDFCAVYKWPVCQV (cysteine pairing not given here; also: biotinylated (site not given here)) [Peptide-2] ?
Output line: 2080

Input line: Also check IDFCLIYNWPVCDT (cysteine pairing not given here; also: biotinylated, site not given here) [Peptide-6]
Output line: 3090

Input line: Also check VDFCELYRWPICNS (cysteine pairing not given here; also: biotinylated (site not given here)) [Peptide-13]
Output line: 2990

Input line: Also check IDFCAMYQWPICDT (cysteine pairing not given here; also: biotinylated (site not given here)) [Peptide-1]
Output line: 1020
